Organism: Rattus norvegicus
measurement_protocol: DrugMatrix - Regimen: Daily Repeat
Type: toxicity, organism-based, Sprague-Dawley
Parameters: regimen Daily Repeat, gender Male, age 6-8 weeks
test_conditions: in vivo, po, 0 mg/kg, 120 h, tissue Plasma, route oral GAVAGE, dose level Control, time 5 day, vehicle 100 % WATER
property: CARBON DIOXIDE (mmol/L)

{"columns": ["compound", "property", "units_symbol", "measured_result"],
 "data": [
  ["CC(C)NCC(O)c1ccc(NS(C)(=O)=O)cc1 (stereo not drawn) [SOTALOL]", "CARBON DIOXIDE", "mmol/L", 26.33],
  ["CN1[C@@H]2CC[C@H]1C[C@@H](OC(=O)C(CO)c1ccccc1)C2 (stereo partly drawn) [ATROPINE]", "CARBON DIOXIDE", "mmol/L", 33.67],
  ["NNc1nncc2ccccc12 [HYDRALAZINE]", "CARBON DIOXIDE", "mmol/L", 27.17]
]}

====

Reported LEUKOCYTE COUNT by item:
Species on record: Rattus norvegicus
measurement_protocol: DrugMatrix - Regimen: Daily Repeat
Format: toxicity, organism-based, Sprague-Dawley
Design: regimen Daily Repeat, gender Male, age 6-8 weeks
test_conditions: in vivo, po, 10 mg/kg, 120 h, tissue Blood, route oral GAVAGE, dose level Low, time 5 day, vehicle .5 % CMC

{"columns": ["compound", "LEUKOCYTE COUNT (x10E3/uL)"],
 "data": [
  ["Fc1ccc(C(c2ccc(F)cc2)N2CCN(C/C=C/c3ccccc3)CC2)cc1", 15.83],
  ["O=C1CN=C(c2ccccc2Cl)c2cc([N+](=O)[O-])ccc2N1", 8.87],
  ["CNCCC(Oc1ccc(C(F)(F)F)cc1)c1ccccc1 (centres undefined)", 11.3],
  ["O=C1C(CC[S+]([O-])c2ccccc2)C(=O)N(c2ccccc2)N1c1ccccc1 (centres undefined)", 9]
]}

====

Species on record: Rattus norvegicus
measurement_protocol: DrugMatrix - Regimen: Daily Repeat
Format: toxicity, organism-based, Sprague-Dawley
Parameters: regimen Daily Repeat, gender Male, age 6-8 weeks
test_conditions: in vivo, po, 2000 mg/kg, 120 h, tissue Blood, route oral GAVAGE, dose level High, time 5 day, vehicle .5 % CMC
Response field label takes true (1) when LEUKOCYTE COUNT is strictly below 10 x10E3/uL and false (0) in all other cases.

{"columns": ["compound", "answer_label"],
 "data": [
  ["CC1(C)S[C@@H]2[C@H](NC(=O)[C@H](N)c3ccccc3)C(=O)N2[C@H]1C(=O)O", "false (0)"],
  ["CN/C(=N/CCSCc1nc[nH]c1C)NC#N", "false (0)"],
  ["O=C1Nc2ccc(Cl)cc2C(c2ccccc2Cl)=NC1O (stereo unspecified)", "false (0)"],
  ["CN(C/C=C/C#CC(C)(C)C)Cc1cccc2ccccc12", "true (1)"],
  ["NC1CCN(c2nc3c(cc2F)c(=O)c(C(=O)O)cn3-c2ccc(F)cc2F)C1 (stereo unspecified)", "false (0)"]
]}

====

Reported POTASSIUM by item:
Organism: Rattus norvegicus
measurement_protocol: DrugMatrix - Regimen: Daily Repeat
Assay type: toxicity, organism-based, Sprague-Dawley
Set-up: regimen Daily Repeat, gender Male, age 6-8 weeks
test_conditions: in vivo, po, 2000 mg/kg, 120 h, tissue Plasma, route oral GAVAGE, dose level High, time 5 day, vehicle .5 % CMC

{"columns": ["compound", "POTASSIUM [MEQ/L]"],
 "data": [
  ["CN/C(=N/CCSCc1nc[nH]c1C)NC#N", 5.31],
  ["CN(C/C=C/C#CC(C)(C)C)Cc1cccc2ccccc12", 6.4],
  ["CC1(C)S[C@@H]2[C@H](NC(=O)[C@H](N)c3ccccc3)C(=O)N2[C@H]1C(=O)O", 6.95],
  ["NC1CCN(c2nc3c(cc2F)c(=O)c(C(=O)O)cn3-c2ccc(F)cc2F)C1 (stereo unspecified)", 6.3],
  ["O=C1Nc2ccc(Cl)cc2C(c2ccccc2Cl)=NC1O (stereo unspecified)", 5.62],
  ["COc1cc2nc(N3CCN(C(=O)c4ccco4)CC3)nc(N)c2cc1OC", 5.65]
]}
